Item-by-item account of enrichment
B1: NLV3 TCR beta chain (CDR3β only) (parent)
chain: ASSPTGGSPSPLH

Variants of: B1
Experiment: T-Switch: Jurkat TCRβ−/− cells expressing a CDR3 saturation-mutagenesis library, stained with two peptide-HLA-A*02:01 tetramers (original and novel peptide) plus anti-CD3, FACS-sorted into four gates, gDNA sequenced
Details: with both tetramers (double-negative gate, binds neither): HLA-A*02:01 with … and with …, tetramers 1 µg/mL, 30 min on ice, SP, DP and SW gates expanded about 10 days between rounds ('two to three rounds of selection' in the Methods), gate DN: OPPOSITE: higher = more of the variant in the gate that binds neither peptide = LESS binding (or no expression; inferred). Fold enrichment of the CDR3 variant in one FACS gate of a two-tetram, unresolved parent, parent is a CDR3 fragment, scale: fold enrichment, numbering: sequential-on-construct, sequence starts at 1
Simply state the number, no unit and no words.

Worked examples, 4 variants total:
[…] (CDR3 as printed); S2R derived by comparing it with the table's wild-type CDR3 ASSPTGGSPSPLH    0.703
[…] (CDR3 as printed); H13V derived by comparing it with the table's wild-type CDR3 ASSPTGGSPSPLH    0.58
[…] (CDR3 as printed); P11Y derived by comparing it with the table's wild-type CDR3 ASSPTGGSPSPLH    0.787
[…] (CDR3 as printed); S2E derived by comparing it with the table's wild-type CDR3 ASSPTGGSPSPLH    0.993

Would you mind telling me what enrichment value was observed for […] (CDR3 as printed); T5W derived by comparing it with the table's wild-type CDR3 ASSPTGGSPSPLH ?
0

Then this variant: […] (CDR3 as printed); P4Y derived by comparing it with the table's wild-type CDR3 ASSPTGGSPSPLH
0.624

Then this variant: […] (CDR3 as printed); H13M derived by comparing it with the table's wild-type CDR3 ASSPTGGSPSPLH
0.598

Where do these numbers come from? They come from paper PMC13397619.
